System: RPE‐1 cells
experimentDescription: (Photo-)cytotoxicity on 2D cell monolayers, resazurin assay
Format: cell-based
conditionDetails: Homo sapiens; RPE‐1, normoxic, dark, 4 h exposure, total 48 h incubation; read-out: IC50 Dark
measurementLabel: pIC50
Lab note: report pIC50 as minus log10 of the concentration in molar units, number only.

(Q) Provide measured pIC50 value, entry: Cc1cc(Nc2ncc(Cl)c(Nc3ccccc3S(=O)(=O)C(C)C)n2)c(OC(C)C)cc1C1CCNCC1 [Ceritinib]
(A) 5.32

* * *

Test system: A2780 cells
experimentDescription: (Photo-)cytotoxicity on 2D cell monolayers, resazurin assay
Format: cell-based, human
conditionDetails: Homo sapiens; A2780, normoxic, dark, 4 h exposure, total 48 h incubation; read-out: IC50 Dark
measurementLabel: IC50 (nM)
Reply numerically in nM, unit not repeated.

(Q) Please indicate IC50 recorded for Cc1cc(Nc2ncc(Cl)c(Nc3ccccc3S(=O)(=O)C(C)C)n2)c(OC(C)C)cc1C1CCNCC1 [Ceritinib]
(A) 2610
